Recorded Fold IC50 pH 7.4 (Variant v Par0067) values for a group of binders are listed next.
Target: T1, recombinant biotinylated human PAR2 extracellular domain (residues 1-75), N-terminal AviTag, C-terminal Flag … (human, UniProt P55085 26-75, biotin on the AviTag (enzymatic biotinylation))
T1 construct: also called Bio-human-PAR2 ECD; human PAR2 ECD; not shown: N-terminal AviTag (Avidity LLC); C-terminal Flag and poly Histidine tags
T1 sequence (P55085 26-75): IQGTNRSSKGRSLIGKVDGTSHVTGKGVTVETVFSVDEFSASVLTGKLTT
Assay: HTRF competition with Par0067 IgG, scFv
Only the number, expressed in fold, is required.

Guide cases for Fold IC50 pH 7.4 (Variant v Par0067), answers given:
* PaB670088 scFv (scFv, V domains shown, purified scFv; also called ZZ1ODR-B11) VH: EVQLLESGGGLVQPGGSLRLSCAASGFTFSSYAMNWVRQAPGKGLEWVSTISYSGHLIHYADHHHGRFTISRDNSKNTLYLQMNSLRAEDTAVYYCARINNDPMDVWGQGTLVTVSS VL: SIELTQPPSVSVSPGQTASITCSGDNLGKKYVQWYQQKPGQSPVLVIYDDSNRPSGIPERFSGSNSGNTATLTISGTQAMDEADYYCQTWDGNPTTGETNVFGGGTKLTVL | 9
* PaB670089 scFv (scFv, V domains shown, purified scFv; also called ZZ1ODR-C05) VH: EVQLLESGGGLVQPGGSLRLSCAASGFTFSSYAMNWVRQAPGKGLEWVSTISYHGSHISHADHVHGRFTISRDNSKNTLYLQMNSLRAEDTAVYYCARINNDPMDVWGQGTLVTVSS VL: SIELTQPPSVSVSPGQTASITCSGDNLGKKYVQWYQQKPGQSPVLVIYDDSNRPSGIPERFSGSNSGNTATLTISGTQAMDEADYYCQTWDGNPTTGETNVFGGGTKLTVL | 9.1
* PaB670075 scFv (scFv, V domains shown, purified scFv; also called ZZ1NHH-A05) VH: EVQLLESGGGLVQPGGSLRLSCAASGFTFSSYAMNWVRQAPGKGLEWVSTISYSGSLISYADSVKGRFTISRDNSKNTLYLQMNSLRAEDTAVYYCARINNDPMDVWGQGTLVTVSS VL: SIELTQPPSVSVSPGQTASITCSGDNLGKKYVQWYQQKPGQSPVLVIYDDSNRPSGIPERFSGSNSGNTATLTISGTQAMDEADYYCQHWDGNHHHGETNHFGGGTKLTVL | 30.8
* PaB670104 scFv (scFv, V domains shown, purified scFv) VH: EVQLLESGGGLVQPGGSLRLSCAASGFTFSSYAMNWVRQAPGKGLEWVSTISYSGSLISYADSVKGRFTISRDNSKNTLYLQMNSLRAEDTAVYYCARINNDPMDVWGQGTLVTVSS VL: SIELTQPPSVSVSPGQTASITCSGDNLGKKYVQWYQQKPGQSPVLVIYDDSNRPSGIPERFSGSNSGNTATLTISGTQAMDEADYYCQHWDGHHHTGETNVFGGGTKLTVL | 6.6

In: Entry PaB670070 scFv (scFv, V domains shown, purified scFv; also called ZZ1KXE-D06) VH: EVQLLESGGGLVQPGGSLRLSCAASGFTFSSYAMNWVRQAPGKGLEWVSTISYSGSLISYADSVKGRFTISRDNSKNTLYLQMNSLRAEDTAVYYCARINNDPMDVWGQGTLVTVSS VL: SIELTQPPSVSVSPGQTASITCSGDNLGKKYVQWYQQKPGQSPVLVIYDDSNRPSGIPERFSGSNSGNTATLTISGTQAMDEADYYCQTWDHNHHTGHTNVFGGGTKLTVL has what Fold IC50 pH 7.4 (Variant v Par0067)?
Out: 18.3
